Biological target: T1, human MAdCAM expressed on cells (human, UniProt Q13477 19-382)
T1 construct: whole, on cells; also called MADCAM1
T1 sequence (looked up): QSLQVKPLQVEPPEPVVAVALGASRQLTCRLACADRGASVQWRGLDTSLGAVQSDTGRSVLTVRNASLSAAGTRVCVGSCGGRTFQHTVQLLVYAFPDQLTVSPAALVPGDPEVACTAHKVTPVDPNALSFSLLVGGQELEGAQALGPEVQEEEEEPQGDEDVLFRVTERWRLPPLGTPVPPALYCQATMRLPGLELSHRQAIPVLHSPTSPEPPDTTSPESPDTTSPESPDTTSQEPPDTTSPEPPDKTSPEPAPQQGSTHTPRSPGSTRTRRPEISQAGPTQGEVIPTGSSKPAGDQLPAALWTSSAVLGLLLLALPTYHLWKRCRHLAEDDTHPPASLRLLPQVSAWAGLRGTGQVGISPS
Assay: cell binding

binder: MAdCAM Antibody Table 2 Clone 7 (antibody, human IgG1, V domains shown) VH: EVQLLESGGGLVQPGGSLRLSCAASGFTFSDYQMSWVRQAPGKGLEWVAIISHADGGFKDYADSVKGRFTISRDNSKNTLYLQMNSLRAEDTAVYYCAKPYSSGWSAVYYFDYWGQGTLVTVSS VL: DIQMTQSPSSLSASVGDRVTITCRASRGITNDLGWYQQKPGKAPKLLIYAASTLQSGVPSRFSGSGSGTDFTLTISSLQPEDFATYYCQQAYSFPWTFGQGTKVEIK
binding result: binds
--
binder: MAdCAM Antibody Table 2 Clone 15 (antibody, human IgG1, V domains shown) VH: QVQLVQSGAEVKKPGASVKVSCKASGYTFTGYYMHWVRQAPGQGLEWMGWIGPNSGDTNYAQKFQGRVTMTRDTSTSTVYMELSSLRSEDTAVYYCARDLDHNWYFDLWGRGTLVTVSS VL: DIVMTQSPLSLPVTPGEPASISCRSSQSLLHSNGYNYLDWYLQKPGQSPQLLIYSSSNRAPGVPDRFSGSGSGTDFTLKISRVEAEDVGVYYCMQALHIPLTFGGGTKVEIK
binding result: binds
--
binder: MAdCAM Antibody Table 2 Clone 61 (antibody, human IgG1, V domains shown) VH: QVQLVQSGAEVKKPGASVKVSCKASGDTFTGYYIHWVRQAPGQGLEWMGWINPNSGGTNYAQKFQGRVTMTRDTSTSTVYMELSSLRSEDTAVYYCARSGLWLGSYYGMDVWGQGTLVTVSS VL: DIQMTQSPSSLSASVGDRVTITCRASQTISIWLAWYQQKPGKAPKLLIYDASTLQSGVPSRFSGSGSGTDFTLTISSLQPEDFATYYCQQYSSYPLTFGQGTKVEIK
binding result: binds

FYI, the data here is from patent US20210206856A1.
